Test system: RXF 393 renal
Assay: NCI-60 one-dose screen, 48 h (100 = growth as untreated, 0 = no growth, -100 = all killed)
Conditions: 10 µM unless noted
Compounds without any hit were thinned out: in the full panel of roughly 83,000, 20% have a hit.
We label by threshold. Values of growth strictly beneath 40% are satisfied. Values of 40% and up are not satisfied.

Take a look at these entries with their results.
1. O=C(CBr)CN1C(=O)c2ccccc2C1=O : not satisfied
2. CC(C)CCC[C@@H](C)C1CCC2C3CCC4=C/C(=N/OCCN(C)C)CC[C@]4(C)C3CC[C@@]21C (stereo not given in full) : not satisfied
3. CCN(CC)c1ccc(N2C(=O)/C(=C/c3cccs3)SC2=S)cc1 : not satisfied
4. CCCCCSB(SCCCCC)c1ccccc1 : not satisfied
5. Cc1ccc(Nc2nc(-c3ccc(F)cc3)c(C#N)c(=O)n2C)cc1 : not satisfied

Is it true that growth reported for `CN1CCN(CCOc2ccc(-c3cnc4c(-c5ccc(C(F)(F)F)cc5)cnn4c3)cc2)CC1` is less than 40%? satisfied

I wonder whether `NC(=O)OCCn1cc(-c2nc(-c3c[nH]c4ncccc34)cs2)c2ccccc21` has growth below 40%. Can you tell? not satisfied

Here's an entry: COc1ccc(C2=NN(C(=O)c3cc(OC)c(OC)c(OC)c3)C(c3ccc(N(C)C)cc3)C2)cc1 (stereo not given) . Is its growth below 40%? satisfied

Lab note: confirm whether the reported growth for this compound is below 40%, equality not counting. compound: `Cc1ccc(/C=C(\C#N)C(=O)Nc2ncc(Cc3cc(Cl)ccc3Cl)s2)o1` satisfied
